- Target: EGFR (form used in the assay not stated) (human, UniProt P00533 25-645, limits assumed)
- Assay notes: ELISA, NEM conjugate, 500 nM
Parameter: binding relative to P54AR4-83v2 parent (ratio)
Respond numerically; units are ratio and should not be typed.

Binder	Parameter	Result value
P54AR4-83v2 P2C, NEM conjugate (designed binder, not shown: small tags and cut ends, N-ethyl maleimide (NEM) on Cys 2) LCAPKNLVVSEVTEDSARLSWDDPWAFYESFLIQYQESEKVGEAIVLTVPGSERSYDLTGLKPGTEYTVSIYGVHNVYKDTNMRGLPLSAIFTT	binding relative to P54AR4-83v2 parent	0.01
P54AR4-83v2 V74C, NEM conjugate (designed binder, not shown: small tags and cut ends, N-ethyl maleimide (NEM) on Cys 74) LPAPKNLVVSEVTEDSARLSWDDPWAFYESFLIQYQESEKVGEAIVLTVPGSERSYDLTGLKPGTEYTVSIYGCHNVYKDTNMRGLPLSAIFTT	binding relative to P54AR4-83v2 parent	0.95
P54AR4-83v2 R84C, NEM conjugate (designed binder, not shown: small tags and cut ends, N-ethyl maleimide (NEM) on Cys 84) LPAPKNLVVSEVTEDSARLSWDDPWAFYESFLIQYQESEKVGEAIVLTVPGSERSYDLTGLKPGTEYTVSIYGVHNVYKDTNMCGLPLSAIFTT	binding relative to P54AR4-83v2 parent	0.98

In: Entry P54AR4-83v2 E39C, NEM conjugate (designed binder, not shown: small tags and cut ends, N-ethyl maleimide (NEM) on Cys 39) LPAPKNLVVSEVTEDSARLSWDDPWAFYESFLIQYQESCKVGEAIVLTVPGSERSYDLTGLKPGTEYTVSIYGVHNVYKDTNMRGLPLSAIFTT : reported binding relative to P54AR4-83v2 parent = ?
Out: 0.9
